Listed next: entries and their corresponding inhibition in vivo at 100 mg/kg.
Test system: Stress Ulcer
testDetails: Inhibitory Effect on Stress Ulcer in Rat (Water Immersion Restraint Method)
Format: in vivo
conditionParameters: Rattus norvegicus, ip, 20 h, intraperitoneal, 100 mg/kg, water immersion restraint 21° C.
Reply numerically in %, unit not repeated.

# example entries with known answers
COc1ccc(C(N)=O)c(NCC(=O)NCCc2ccc(OC)c(OC)c2)c1
44
COc1ccc(CCNC(=O)CNc2cccc(Cl)c2)cc1OC
36

// switching to the query compound
q: Recorded inhibition in vivo at 100 mg/kg of COc1ccc(CCNC(=O)CNc2cc(N)ncn2)cc1OC , please.
a: 27
